Target: IRAK-4 (Homo sapiens, UniProt Q9NWZ3)
Sequence (Q9NWZ3 whole entry): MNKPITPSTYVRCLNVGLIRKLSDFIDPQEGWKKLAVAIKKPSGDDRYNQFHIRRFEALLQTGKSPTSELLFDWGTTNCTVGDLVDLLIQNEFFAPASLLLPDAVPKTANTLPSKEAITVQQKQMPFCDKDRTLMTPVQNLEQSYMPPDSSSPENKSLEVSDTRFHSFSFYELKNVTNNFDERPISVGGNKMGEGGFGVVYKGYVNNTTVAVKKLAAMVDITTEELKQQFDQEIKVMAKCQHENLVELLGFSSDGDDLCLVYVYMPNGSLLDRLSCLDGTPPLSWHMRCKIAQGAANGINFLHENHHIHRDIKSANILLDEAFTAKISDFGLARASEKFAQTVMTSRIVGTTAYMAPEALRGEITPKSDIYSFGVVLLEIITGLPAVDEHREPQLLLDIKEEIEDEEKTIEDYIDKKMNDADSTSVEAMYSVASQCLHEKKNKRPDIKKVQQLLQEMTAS
Assay: IRAK-4 ELISA, PBMC degradation
Format: cell-based
Design: endogenous in cells; host or cells: PBMC
Settings: treated overnight
Description: Reagents: Human IRAK-4 Matched Antibody Pair Kit (Abcam ab218182) and ELISA Accessory Pack (Abcam ab210905). Cell Treatment and Lysis: 1. OCI-Ly10: 200,000 cells are seeded at 1×10^6/ml in 96-well U-bottom plates 200 ul per well, treated with compound the same day. Incubate overnight. 2. PBMC: 800,000 cells are seeded at 2×10^6/ml in 96-well U-bottom deep-well plates, 400 ul per well, treated with compound the same day. […] Cell lysate is collected and analyzed by ELISA for IRAK-4 levels.
DC50 by entry:

[Q] State, in one line, measured DC50 of CC(C)Oc1nc2nn(C3CCN(CC4(F)CN(c5ccc6c(c5)CN(C5CCC(=O)NC5=O)C6=O)C4)CC3)cc2cc1NC(=O)c1cnn2cccnc12 (centres unmarked)
[A] < 1 nM

[Q] State, in one line, measured DC50 of O=C1CCC(N2Cc3c(cccc3N3CC4(CCCN(C5CCC(n6cc7cc(NC(=O)c8cnn9cccnc89)c(OCC8CC8)cc7n6)CC5)C4)C3)C2=O)C(=O)N1 (centres unmarked)
[A] ≥ 10 nM
